Kindly state remaining at 0.5 h for each of the entries shown.
experiment: Metabolic stability in rat liver microsomes after 0.5 hrs; format: ADME, microsome; details: read-out: Stability
Reply with just the number (in %).

So for `Cc1cnc(Oc2ccc3nc(COc4cccc(C(=O)O)c4)n(C)c3c2)c(C)c1` , the logged remaining at 0.5 h turned out to be 92

The compound `Cn1c(COc2cccc(C(=O)O)c2)nc2ccc(Oc3ccc(Cl)cn3)cc21` showed remaining at 0.5 h equal to 100

In plain terms, `Cn1c(COc2cccc(C(=O)O)c2)nc2cnc(Oc3ccc4c(c3)CCC4)cc21` has a documented remaining at 0.5 h of 81

get_value(item= `Cc1cc(Cl)cnc1Oc1ccc2nc(COc3cccc(C(=O)O)c3)n(C)c2c1` , readout=remaining at 0.5 h) returns 81

Form field remaining at 0.5 h, entry `Cn1c(COc2cccc(C(=O)O)c2)nc2ccc(Oc3ncc(Cl)cc3F)cc21` : 87

Recorded result, `Cn1c(COc2cccc(C(=O)O)c2)nc2ccc(Oc3ccc4c(c3)CCC4)nc21` , remaining at 0.5 h: 71

According to the records, this compound `Cc1ccc(Oc2ccc3nc(COc4cccc(C(=O)O)c4)n(C)c3n2)cc1` displays remaining at 0.5 h of 100

Entry under test: `Cn1c(COc2cccc(C(=O)O)c2)nc2ccc(Oc3ccc4c(c3)OCC4)nc21` . Its remaining at 0.5 h was 89
